- target.or.system: T1, human GITR (human, UniProt Q9Y5U5 26-241)
- T1 construct: also called TNFRSF18; Glucocorticoid-induced TNFR-related gene
- T1 sequence: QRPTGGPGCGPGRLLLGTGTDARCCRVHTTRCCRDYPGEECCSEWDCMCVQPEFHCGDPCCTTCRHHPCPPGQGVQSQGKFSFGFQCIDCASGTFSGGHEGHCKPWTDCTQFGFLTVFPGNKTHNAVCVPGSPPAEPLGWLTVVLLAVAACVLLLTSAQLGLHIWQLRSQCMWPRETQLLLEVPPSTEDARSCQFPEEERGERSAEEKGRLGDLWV
- assay.info: flow cytometry on activated human T cells

{"binder": "7A10v3 (antibody, human IgG1, kappa, V domains shown, Engineered variant; also called Ab41; SS-16939) VH: QVQLVESGGGVVQPGRSLRLSCAASGFTFSSYGMHWVRQAPGKGLEWMAVIWYVGSNKYYAESVKGRFTISRDNSKNTLYLQMNSLRAEDTAVYYCARGGELGRDYYSGMDVWGQGTTVTVSS VL: DIQMTQSPSSLSASVGDRVTITCRASQGIRNDLGWYQQKPGKAPKRLIYAASSLQSGVPSRFSGSGSGTEFTLTISSLQPEDFATYYCQQHNSYPWTFGQGTKVEIKR", "EC50 [mg/L]": 0.003}
{"binder": "9H6v4 (antibody, human IgG1, kappa, V domains shown, Engineered variant; also called Ab47; SS-16945) VH: QVQLVESGGGVVQPGRSLRLSCVASGFTFSSYGMHWIRQAPGKGLEWVAVIWYEGSNKYYADTVKGRFTISRDNSKNTLYLQMNSLRAEDTAVYYCARGGRLGKDYYSGMDVWGQGTTVTVSS VL: DIQMTQSPSSLSASVGDRVTITCRASQGIRNDLGWYQQKPGKAPKRLIYATSSLQSGVPSRFSGSGSGTEFTLTISSLQPEDFATYYCLQHNTYPWTFGQGTKVEIKR", "EC50 [mg/L]": 0.095}
{"binder": "7A10 (antibody, human IgG1, kappa, V domains shown, Parental fully human antibody; also called Ab18; SS-10944) VH: QVQLVESGGGVVQPGRSLRLSCAASGFTFSSYGMHWVRQAPGKGLEWMAVIWYVGSNKYYADSVKGRFTISRDNSKNTLYLQMNSLSAEDTAVYYCARGGELGRDYYSGMDVWGQGTTVTVSS VL: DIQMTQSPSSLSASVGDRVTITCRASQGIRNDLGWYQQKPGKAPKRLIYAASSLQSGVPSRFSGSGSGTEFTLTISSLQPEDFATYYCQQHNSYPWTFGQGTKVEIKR", "EC50 [mg/L]": 0.067}
